Reported values of cell viability for individual entries
- System: U2OS
- Protocol: cell viability relative to DMSO; higher = less toxic
- Condition summary: 72 h; 10000 nM
Measure: cell viability (%)

INSERT INTO measurements (compound, u, reading) VALUES
  ('CC[C@H]1OC(=O)C[C@@H](O)[C@H](C)[C@@H](O[C@@H]2O[C@H](C)C[C@H](N(C)C)[C@H]2O)[C@@H](CC=O)C[C@@H](C)C(=O)/C=C/[C@]2(C)O[C@H]2[C@@H]1C [rosamicin]', '%', 37.1),
  ('O=C(CCCCCN1C(=O)c2cccc3cccc(c23)C1=O)NO [scriptaid]', '%', 3.1),
  ('Nc1n[nH]c2nnc(-c3c(-c4ccccc4)nn4ccccc34)cc12', '%', 89.1),
  ('CC(C)(C)NCC(O)COc1cccc2c1CCC(=O)N2 (stereo not given) [carteolol]', '%', 93.9),
  ('CC(=O)O[C@H]1C[C@@]2(C)[C@@H](C[C@@H](O)[C@H]3[C@@]4(C)CC[C@@H](O)[C@@H](C)[C@@H]4CC[C@@]32C)/C1=C(\CCC=C(C)C)C(=O)O [fusidic-acid]', '%', 100),
  ('N[C@H]1C[C@@H]1c1ccc(-c2cccc(O)c2)cc1 [OG-L002]', '%', 96.4),
  ('O=C(Nc1ccc(Cl)cc1)Nc1cccc(-c2cccc(N3CCCC3)n2)c1 [PSNCBAM-1]', '%', 102),
  ('NC(=O)NCCC[C@H](N)C(=O)O [L-citrulline]', '%', 95.6),
  ('CO[C@@]1(NC(=O)CSC[C@@H](N)C(=O)O)C(=O)N2C(C(=O)O)=C(CSc3nnnn3C)CS[C@@H]21 [cefminox]', '%', 101),
  ('Cc1cc(=O)oc2c(C=O)c(O)ccc12 [4-mu-8C]', '%', 99),
  ('O=C(O)COc1cccc(-c2ocnc2-c2nc(-c3ccccc3)c(-c3ccccc3)o2)c1', '%', 101),
  ('CC(=O)O[C@@]12CO[C@@H]1C[C@H](O)[C@@]1(C)C(=O)[C@H](O)C3=C(C)[C@@H](O)C[C@@](O)([C@@H](OC(=O)c4ccccc4)[C@H]21)C3(C)C [10-deacetylbaccatin]', '%', 107),
  ('CCO/N=C(\C(=O)N[C@@H]1C(=O)N2C(C(=O)[O-])=C(Sc3nc(-c4cc[n+](C)cc4)cs3)CS[C@H]12)c1nsc(NP(=O)(O)O)n1 [ceftaroline-fosamil]', '%', 102),
  ('Cc1nc(=O)c2cc(CN(C)c3ccc(C(=O)N[C@@H](CCC(=O)O)C(=O)O)s3)ccc2[nH]1 [raltitrexed]', '%', 95.8),
  ('CCCOc1ccc(S(=O)(=O)N2CCN(CCO)CC2)cc1-c1nc2c(CCC)cn(CC)c2c(=O)[nH]1 [mirodenafil]', '%', 96.3);

* * *

Reported values of relative viability EC50 for individual entries
- System: Vero E6
- Protocol: relative viability EC50 (midpoint between 100% and the lowest measured viability); higher = less toxic
- Condition summary: 72 h
Measure: relative viability EC50

INSERT INTO results (compound, reading) VALUES
  ('O=C1Cc2c([nH]c3ccc(Br)cc23)-c2ccccc2N1', '> 10 µM'),
  ('COc1ccc(Cl)cc1NC(=O)Nc1cc(C)nc2ccccc12', '> 10 µM'),
  ('Clc1ccc(N2CCN(Cc3c[nH]c4ncccc34)CC2)cc1', '> 10 µM'),
  ('NCC1CC(=O)N(Cc2ccccc2)C1 (stereo not given)', '> 10 µM'),
  ('C[C@@]12CC[C@@H]3[C@@](CC[C@H]4[C@@]3(C)CCC[C@@]4(C)C(=O)O)(CC1=O)C2', '> 10 µM');

* * *

- System: Vero E6
- Protocol: cell viability relative to DMSO; higher = less toxic
- Condition summary: 72 h; 10 nM
Measure: cell viability (%)

INSERT INTO results (compound, measure, u, reading) VALUES
  ('CO/N=C(\C(=O)N[C@@H]1C(=O)N2C(C(=O)[O-])=C(C[N+]3(C)CCCC3)CS[C@H]12)c1csc(N)n1 [cefepime]', 'cell viability', '%', 101),
  ('CCCn1c(=O)c2nc(-c3ccccc3)[nH]c2n(CCC)c1=O [1,3-dipropyl-8-phenylxanthine]', 'cell viability', '%', 95.4),
  ('Cc1cccc(Oc2cnc(=O)[nH]c2)c1 [tolimidone]', 'cell viability', '%', 95.4),
  ('Nc1nonc1/C(=N/O)Nc1ccc(F)c(Cl)c1 [IDO5L]', 'cell viability', '%', 102),
  ('CCCCC(=O)O[C@]1(C(=O)CO)[C@@H](C)C[C@H]2[C@@H]3CCC4=CC(=O)C=C[C@]4(C)[C@@]3(F)[C@@H](O)C[C@@]21C [BETAMETHASONE VALERATE]', 'cell viability', '%', 102),
  ('CCOC(=O)CSCCC1NC(C(=O)O)CS1 (stereo unspecified) [letosteine]', 'cell viability', '%', 102),
  ('CC(C)(CC(=O)N1CCCC1)NCC(=O)N1C[C@@H](F)C[C@H]1C#N [DBPR108]', 'cell viability', '%', 99.9),
  ('C=CCN1CC[C@]23c4c5ccc(O)c4O[C@H]2/C(=N/NC(=O)c2ccccc2)CC[C@@]3(O)[C@H]1C5 [naloxone-benzoylhydrazone]', 'cell viability', '%', 102),
  ('CCOC(=O)c1ccc(-c2ccc(OC(=O)N(C)Cc3cccc(-c4ccncc4)c3)cc2)cc1 [WWL-113]', 'cell viability', '%', 98.4),
  ('CC(=O)O[C@@]12CO[C@@H]1C[C@H](O)[C@@]1(C)C(=O)[C@H](O)C3=C(C)[C@@H](O)C[C@@](O)([C@@H](OC(=O)c4ccccc4)[C@H]21)C3(C)C [10-deacetylbaccatin]', 'cell viability', '%', 96.1),
  ('O=C(/C=C/c1cccc(S(=O)(=O)Nc2ccccc2)c1)NO [belinostat]', 'cell viability', '%', 92.9),
  ('CNCCC=C1c2ccccc2CCc2ccccc21 [nortriptyline]', 'cell viability', '%', 106),
  ('COC(=O)C1=C(C)NC(C)=C(C(=O)OC/C=C/c2ccccc2)C1c1cccc([N+](=O)[O-])c1 (stereo unspecified) [pranidipine]', 'cell viability', '%', 103),
  ('CC1(C)S[C@@H]2[C@H](NC(=O)[C@H](NC(=O)N3CCN(S(C)(=O)=O)C3=O)c3ccccc3)C(=O)N2[C@H]1C(=O)O [mezlocillin]', 'cell viability', '%', 107),
  ('CCC1NC(=O)c2cc(S(N)(=O)=O)c(Cl)cc2N1 (stereo unspecified) [quinethazone]', 'cell viability', '%', 86.7),
  ('Nc1ccn([C@H]2C[C@H](O)[C@@H](CO)O2)c(=O)n1 [torcitabine]', 'cell viability', '%', 95.7);

* * *

- Test system: Caco-2
- Protocol: drug sensitivity score (DSS) for viability; higher = more toxic; extreme values may be limits of the assay
- Condition summary: 72 h
Measure: drug sensitivity score

INSERT INTO results (compound, measure, reading) VALUES
  ('Fc1cc(F)c2c(c1)[C@H]1C=CC[C@H]1C(c1cccnc1)N2 (stereo not given in full) [Golgicide A]', 'drug sensitivity score', 4),
  ('COC(=O)/C=C/c1cccc(N(Cc2ccc(-c3ccc(N(C)C)cc3)cc2)C(=O)C2CCCCC2)c1 [fexaramine]', 'drug sensitivity score', 1.3),
  ('COC(=O)C1=CO[C@@H](O[C@@H]2O[C@H](CO)[C@@H](O)[C@H](O)[C@H]2O)[C@@H]2C(CO)=CC[C@H]12 [geniposide]', 'drug sensitivity score', 0),
  ('CCCC(=O)O[C@]1(C(=O)COC(C)=O)CC[C@H]2[C@@H]3C[C@H](F)C4=CC(=O)C=C[C@]4(C)[C@@]3(F)[C@@H](O)C[C@@]21C [difluprednate]', 'drug sensitivity score', 0),
  ('CN(C)CCOC(=O)C(c1ccccc1)C1(O)CCCC1 (stereo not given) [cyclopentolate]', 'drug sensitivity score', 0),
  ('CCCC[C@H]1OC(=O)c2ccccc21 [butylphthalide]', 'drug sensitivity score', 0),
  ('Cn1cnc(N)c2ncnc1-2 [3-methyladenine]', 'drug sensitivity score', 0),
  ('CN(C)C(=O)c1ccc(S(=O)(=O)c2ccc(NC(=O)[C@@](C)(O)C(F)(F)F)c(Cl)c2)cc1 [AZD7545]', 'drug sensitivity score', 1.2),
  ('NC(=O)NCCC[C@H](N)C(=O)O [L-citrulline]', 'drug sensitivity score', 0),
  ('CC(C)(C)CC(C)(C)c1ccc(O)c(Cc2ccc(Cl)cc2Cl)c1 [clofoctol]', 'drug sensitivity score', 0),
  ('CN1CCN(c2ccc(-c3cccc(CN4CCOCC4)c3)cc2NC(=O)c2c[nH]c(=O)cc2C(F)(F)F)CC1 [OICR-9429]', 'drug sensitivity score', 0),
  ('CC(C)=CCC/C(C)=C/CC/C(C)=C/CSc1ccccc1C(N)=O [farnesyl-thiosalicylic-acid-amide]', 'drug sensitivity score', 0),
  ('CO/N=C(\C(=O)N[C@@H]1C(=O)N2C(C(=O)OCOC(=O)C(C)(C)C)=C(C)CS[C@H]12)c1csc(N)n1 [cefetamet-pivoxil]', 'drug sensitivity score', 0),
  ('O=C(Oc1ccc([N+](=O)[O-])cc1)N1CCC(C(O)(c2ccc3c(c2)OCO3)c2ccc3c(c2)OCO3)CC1 [JZL-184]', 'drug sensitivity score', 0),
  ('CN1CCC(=C2c3ccccc3C=Cc3ccccc32)CC1 [cyproheptadine]', 'drug sensitivity score', 0),
  ('CCC1(CC)C(=O)C=CNC1=O [pyrithyldione]', 'drug sensitivity score', 0),
  ('Cc1ccc2c(c1)Cc1c(C(=O)NN3CCCCC3)nn(-c3ccc(Cl)cc3Cl)c1-2 [GP1a]', 'drug sensitivity score', 0.3),
  ('Cc1cc(Cn2cnc3c2C[C@@H](C(=O)O)N(C(=O)C(c2ccccc2)c2ccccc2)C3)ccc1N(C)C', 'drug sensitivity score', 0),
  ('Nc1ccc(S(=O)(=O)NC(=O)c2ccccc2)cc1 [sulfabenzamide]', 'drug sensitivity score', 0),
  ('CCN(CCNC(=O)Nc1ccccc1Br)c1cccc(C)c1', 'drug sensitivity score', 0),
  ('Nc1ccn([C@H]2C[C@H](O)[C@@H](CO)O2)c(=O)n1 [torcitabine]', 'drug sensitivity score', 0.3),
  ('CC(C)(C)NCC(O)COc1cccc2c1CCC(=O)N2 (stereo not given) [carteolol]', 'drug sensitivity score', 0),
  ('C[C@@H](C1=C(CCN(C)C)Cc2ccccc21)c1ccccn1 (racemic) [dimetindene]', 'drug sensitivity score', 0),
  ('COc1cc(C[C@@H](CO)[C@H](CO)Cc2ccc(O)c(OC)c2)ccc1O [secoisolariciresinol-(-)]', 'drug sensitivity score', 0),
  ('Nc1cc(C(F)(F)F)c(-c2cc(N3CCOCC3)nc(N3CCOCC3)n2)cn1 [buparlisib]', 'drug sensitivity score', 10.3),
  ('NCCc1c[nH]c2ccc(C(N)=O)cc12 [5-carboxamidotryptamine]', 'drug sensitivity score', 0),
  ('CC(=N)NCc1cccc(CN)c1 [1400W]', 'drug sensitivity score', 0),
  ('Nc1n[nH]c2nnc(-c3c(-c4ccccc4)nn4ccccc34)cc12', 'drug sensitivity score', 0.2),
  ('CN1CCC(NC(=O)c2cc(-c3c(O)cc(O)cc3Oc3ccc([N+](=O)[O-])cc3)on2)CC1 [NMS-E973]', 'drug sensitivity score', 8.3),
  ('CC(=O)N(OCc1ccccc1)[C@@H]1c2cc(C#N)ccc2OC(C)(C)[C@H]1O', 'drug sensitivity score', 0),
  ('O=C(O)COc1cccc(-c2ocnc2-c2nc(-c3ccccc3)c(-c3ccccc3)o2)c1', 'drug sensitivity score', 0.7),
  ('O=C(Nc1ccc(Cl)cc1)Nc1cccc(-c2cccc(N3CCCC3)n2)c1 [PSNCBAM-1]', 'drug sensitivity score', 0),
  ('CCO/N=C(\C(=O)N[C@@H]1C(=O)N2C(C(=O)[O-])=C(Sc3nc(-c4cc[n+](C)cc4)cs3)CS[C@H]12)c1nsc(NP(=O)(O)O)n1 [ceftaroline-fosamil]', 'drug sensitivity score', 0),
  ('O=C(OCC(O)CO)c1ccccc1Nc1ccnc2cc(Cl)ccc12 (stereo not given) [glafenine]', 'drug sensitivity score', 0),
  ('COc1cc(C)c(/C=C/C(C)=C/C=C/C(C)=C/C(=O)O)c(C)c1C [acitretin]', 'drug sensitivity score', 0);
